test system: Escherichia coli TOP10; assay: shrunken log2 fold change of peptide-encoding DNA abundance (4.5 h post-induction vs induction); higher = less antimicrobial activity (less host growth inhibition); settings: time post-induction: 4.5 h; library: site-saturation at positions 5, 18, 19, 20
Param threshold (-0.1) applies to shrunken log2 fold change; output met when value >= threshold, not met when value < threshold.

RRIRMRPPRLPRPRPRPDEIPRP
met

Exam item: Is shrunken log2 fold change at least -0.1? Consider RRIRPRPPRLPRPRPRPGIGPRP
Marked response: met

Exam item: Is shrunken log2 fold change at least -0.1? Consider RRIRSRPPRLPRPRPRPQHRPRP
Marked response: not met

Exam item: Is shrunken log2 fold change at least -0.1? Consider RRIRMRPPRLPRPRPRPFRAPRP
Marked response: met

Exam item: Is shrunken log2 fold change at least -0.1? Consider RRIRGRPPRLPRPRPRPLVVPRP
Marked response: met

Exam item: Is shrunken log2 fold change at least -0.1? Consider RRIRPRPPRLPRPRPRPNNDPRP
Marked response: not met

Exam item: Is shrunken log2 fold change at least -0.1? Consider RRIRYRPPRLPRPRPRPAPEPRP
Marked response: met

###

system: Escherichia coli TOP10; assay: shrunken log2 fold change of peptide-encoding DNA abundance (4.5 h post-induction vs induction); higher = less antimicrobial activity (less host growth inhibition); conditions: time post-induction: 4.5 h; library: site-saturation at positions 5, 18, 19, 20
List of shrunken log2 fold change values.
Please reply with the value in numeric form only.

In the examples that follow, each entry is paired with its recorded shrunken log2 fold change.
RRIRRRPPRLPRPRPRPCQCPRP
0.0262
RRIRDRPPRLPRPRPRPQNFPRP
-0.707
RRIRLRPPRLPRPRPRPKEFPRP
-0.0126
RRIRNRPPRLPRPRPRPMVYPRP
0.0157
RRIRGRPPRLPRPRPRPDSRPRP
0.122
RRIRLRPPRLPRPRPRPIKWPRP
-0.412

Alright, here's another sequence for you.
Exam item: // returns reported shrunken log2 fold change for input RRIRPRPPRLPRPRPRPMYLPRP
Marked response: -0.257

###

tested on: Escherichia coli TOP10; assay: shrunken log2 fold change of peptide-encoding DNA abundance (4.5 h post-induction vs induction); higher = less antimicrobial activity (less host growth inhibition); conditions: time post-induction: 4.5 h; library: site-saturation at positions 5, 18, 19, 20
Range-based classes on measured shrunken log2 fold change: low class (below -0.2), middle class (-0.2 to below 0.01), high class (0.01 or more)

RRIRVRPPRLPRPRPRPGHQPRP
middle class

Exam item: In plain terms, what class is RRIRQRPPRLPRPRPRPYHDPRP ?
Marked response: high class

Exam item: In plain terms, what class is RRIRERPPRLPRPRPRPTHFPRP ?
Marked response: low class

Exam item: In plain terms, what class is RRIRMRPPRLPRPRPRPWRCPRP ?
Marked response: high class

Exam item: In plain terms, what class is RRIRPRPPRLPRPRPRPPIAPRP ?
Marked response: high class

Exam item: In plain terms, what class is RRIRRRPPRLPRPRPRPKNEPRP ?
Marked response: high class

###

List of shrunken log2 fold change values.
system: Escherichia coli TOP10; assay: shrunken log2 fold change of peptide-encoding DNA abundance (4.5 h post-induction vs induction); higher = less antimicrobial activity (less host growth inhibition); conditions: time post-induction: 4.5 h; library: site-saturation at positions 5, 18, 19, 20;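 note: peptides expressed intracellularly from a pBAD plasmid library in pooled LB shake-flask culture, induced with 0.3% L-arabinose, DNA abundance read by NGS, three biological replicates, DESeq2 with apeglm shrinkage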
Please reply with the value in numeric form only.

In the examples that follow, each entry is paired with its recorded shrunken log2 fold change.
RRIRWRPPRLPRPRPRPICQPRP
-0.146
RRIRMRPPRLPRPRPRPEIQPRP
0.0386
RRIRMRPPRLPRPRPRPDEEPRP
2.97
RRIRTRPPRLPRPRPRPFSTPRP
-0.0812
RRIRSRPPRLPRPRPRPNLEPRP
-0.144

Exam item: // returns reported shrunken log2 fold change for input RRIRWRPPRLPRPRPRPCVNPRP
Marked response: 0.0912

Exam item: // returns reported shrunken log2 fold change for input RRIRARPPRLPRPRPRPIYPPRP
Marked response: -0.387

Exam item: // returns reported shrunken log2 fold change for input RRIRLRPPRLPRPRPRPAQWPRP
Marked response: -0.0397
